B1: library; numbered along this chain (parent)
chain: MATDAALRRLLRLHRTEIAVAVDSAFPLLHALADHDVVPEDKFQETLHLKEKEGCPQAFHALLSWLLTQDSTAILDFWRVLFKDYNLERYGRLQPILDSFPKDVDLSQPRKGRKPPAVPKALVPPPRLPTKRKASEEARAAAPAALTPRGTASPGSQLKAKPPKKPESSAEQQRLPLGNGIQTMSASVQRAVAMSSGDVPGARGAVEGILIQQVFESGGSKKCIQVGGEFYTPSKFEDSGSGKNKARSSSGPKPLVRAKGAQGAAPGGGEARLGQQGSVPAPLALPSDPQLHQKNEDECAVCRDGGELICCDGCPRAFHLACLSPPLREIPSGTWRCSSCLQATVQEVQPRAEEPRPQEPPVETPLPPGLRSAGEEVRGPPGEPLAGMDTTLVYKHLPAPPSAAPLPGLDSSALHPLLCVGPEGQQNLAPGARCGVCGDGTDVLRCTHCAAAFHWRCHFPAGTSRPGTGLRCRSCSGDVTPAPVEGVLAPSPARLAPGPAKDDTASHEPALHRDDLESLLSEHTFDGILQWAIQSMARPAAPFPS

variants of: B1; assay: AIRE transcriptional activation functional score (insulin promoter-GFP; nonsense median 0, synonymous median 1) (normalised score); higher = higher AIRE activity (more reporter activation); details: with insulin promoter-GFP reporter in HEK293
measure: AIRE transcriptional activation functional score
Reply with just the number.

Use the examples below as a reference point.
{"columns": ["mutation.list", "meas.value"],
 "data": [
  ["V214C", 1.01],
  ["L32M", -0.0821],
  ["V362S", 1.07],
  ["D36K", 0.212],
  ["L122F", 1.32],
  ["H507D", 0.604],
  ["A413K", 0.606],
  ["G155L", 0.509],
  ["A265E", 0.963],
  ["L7N", -0.876]
]}

### Prompt Name the recorded AIRE transcriptional activation functional score for G219A .
### Response 1.13

### Prompt # lookup: AIRE transcriptional activation functional score of A160W
### Response 1.82

### Prompt Data request, read-out AIRE transcriptional activation functional score, for L66A
### Response 0.62

### Prompt Record request: AIRE transcriptional activation functional score value, item A343Y
### Response 1.09

### Prompt Field request: AIRE transcriptional activation functional score | item: E88A
### Response 1.18
